Biological target: dopamine D-1 receptor
Settings: read-out: EC50 (agonist activity in adenylate cyclase assay); tissue from goldfish retina or rat striatum
Counter-ions that a name gives are not always drawn.
Classify: Criterion met when EC50 is strictly less than 80 nM; Criterion not met when EC50 is not.

1) CC(C)(C)CC1Cc2c(ccc(O)c2O)C(CN)O1.Cl (stereo not drawn) [Example 214, Hydrochloride]    Criterion met
2) NC[C@@H]1O[C@H](C2CCCCC2)Cc2c1cc(Br)c(O)c2O (relative stereo)    Criterion met
3) C=CCC[C@H]1Cc2c(ccc(O)c2O)[C@@H](CNC)O1 (relative stereo)    Criterion not met
4) NC[C@H]1O[C@@H](CN2CCCC2)Cc2c1ccc(O)c2O (relative stereo) [Example 156, Dihydrochloride]    Criterion not met
5) Oc1ccc2c(c1O)C[C@H](C1CCCCC1)O[C@@H]2CNC1CC1 (relative stereo)    Criterion met
6) CCCC(=O)NC[C@@H]1Cc2c(ccc(O)c2O)[C@H](CN)O1 (relative stereo)    Criterion not met
7) NCC1=CC2(CCCCCCCC2)Cc2c1ccc(O)c2O    Criterion not met
8) CNC[C@@H]1O[C@H](C23CC4CC(CC(C4)C2)C3)Cc2c1cc(F)c(O)c2O    Criterion met
9) NCC1OC2(CCOCC2)Cc2c1ccc(O)c2O (stereo not drawn)    Criterion not met
10) Oc1ccc2c(c1O)CC1(CCCCCCCC1)C1=C2CNCC1    Criterion not met
11) NC[C@@H]1O[C@H](c2ccc(Br)cc2)Cc2c1ccc(O)c2O (relative stereo)    Criterion met
12) CN(C)C[C@@H]1O[C@H](C23CC4CC(CC(C4)C2)C3)Cc2c1ccc(O)c2O    Criterion met
13) NC[C@@H]1O[C@H](CC23CC4CC(CC(C4)C2)C3)Cc2c1ccc(O)c2O (relative stereo)    Criterion met
14) NCC[C@H]1Cc2c(ccc(O)c2O)[C@@H](CN)O1 (relative stereo)    Criterion not met
15) CNCC1OC2(CCOCC2)Cc2c1ccc(O)c2O (stereo not drawn)    Criterion not met
16) CNC[C@@H]1O[C@H](C23CC4CC(CC(C4)C2)C3)Cc2c1ccc(O)c2O    Criterion met
17) Oc1ccc2c(c1O)C[C@@H](c1ccccc1)O[C@H]2[C@H]1CCCN1    Criterion not met
18) Oc1ccc2c(c1O)C[C@H](c1ccccc1)C[C@H]2[C@H]1CCCN1 (relative stereo) [Example 181, Hydrobromide]    Criterion met
19) CCCNCC1=CC(c2ccccc2)Cc2c1ccc(O)c2O (stereo not drawn)    Criterion not met
20) NC[C@H]1C[C@@H](c2cccc(O)c2)Cc2c1ccc(O)c2O (relative stereo)    Criterion met
21) NC[C@H]1O[C@@H](CNC(=O)c2ccco2)Cc2c1ccc(O)c2O (relative stereo)    Criterion not met
22) Oc1ccc2c(c1O)C[C@H](C1CCCCC1)O[C@@H]2CN1CCCC1 (relative stereo)    Criterion not met
23) CC(=O)NC[C@H]1Cc2c(ccc(O)c2O)[C@@H](CN)O1 (relative stereo)    Criterion not met
24) Oc1ccc2c(c1O)C[C@H](c1ccccc1)O[C@@H]2[C@H]1CCCN1    Criterion not met
25) NCC1CC2(CCCCC2)Cc2c1ccc(O)c2O (stereo not drawn)    Criterion met
26) CC(C)(C)C(=O)NC[C@H]1Cc2c(ccc(O)c2O)[C@@H](CN)O1 (relative stereo)    Criterion not met
27) C=CCC[C@@H]1Cc2c(ccc(O)c2O)[C@H](CN)O1 (relative stereo)    Criterion not met
28) O=CO.Oc1ccc2c(c1O)CC(c1ccccc1)C1=C2CNC1 (stereo not drawn) [Example 184, Formic Acid Salt]    Criterion met
29) CNC[C@@H]1S[C@H](c2ccccc2)Cc2c1ccc(O)c2O (relative stereo) [Example 187, Hydrochloride]    Criterion not met
30) NC[C@H]1C[C@@H](c2ccccc2)Cc2c1ccc(O)c2O (relative stereo) [Example 35, Hydrobromide]    Criterion met
31) CCN1CCC2=C(C1)c1ccc(O)c(O)c1CC21CCCCCC1    Criterion not met
32) C=CCNC[C@@H]1O[C@H](c2ccccc2)Cc2c1ccc(O)c2O (stereo in doubt)    Criterion not met

Origin of values: patent US5621133A
